B1: glmS ribozyme (parent)
chain: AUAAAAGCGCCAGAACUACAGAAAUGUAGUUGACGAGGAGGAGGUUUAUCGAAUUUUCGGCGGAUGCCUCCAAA

Variants of: B1
method: kcat; higher = faster cleavage; RNA array
assay setup: with glucosamine-6-phosphate
Variants at the floor of the assay were thinned out.
outcome measure: log10 of kcat (log10 of the value in s⁻¹)
The common logarithm of kcat in s⁻¹ is what is listed.

# example entries with known answers
- A39U U57A: -3.70
- C58A G60C C67G: -4.92
- G59U A64G: -4.19
- G9U C61G: -3.72
- G29U A64C: -4.81

q: Please list log10 of kcat recorded for the variant G41U A42C
a: -4.72

q: Please list log10 of kcat recorded for the variant A12G C50G
a: -4.93

q: Please list log10 of kcat recorded for the variant U49G C68U
a: -3.84
